Biological target: T1, human gastric inhibitory peptide receptor (GIPR) (human, UniProt P48546 22-466)
T1 sequence (looked up): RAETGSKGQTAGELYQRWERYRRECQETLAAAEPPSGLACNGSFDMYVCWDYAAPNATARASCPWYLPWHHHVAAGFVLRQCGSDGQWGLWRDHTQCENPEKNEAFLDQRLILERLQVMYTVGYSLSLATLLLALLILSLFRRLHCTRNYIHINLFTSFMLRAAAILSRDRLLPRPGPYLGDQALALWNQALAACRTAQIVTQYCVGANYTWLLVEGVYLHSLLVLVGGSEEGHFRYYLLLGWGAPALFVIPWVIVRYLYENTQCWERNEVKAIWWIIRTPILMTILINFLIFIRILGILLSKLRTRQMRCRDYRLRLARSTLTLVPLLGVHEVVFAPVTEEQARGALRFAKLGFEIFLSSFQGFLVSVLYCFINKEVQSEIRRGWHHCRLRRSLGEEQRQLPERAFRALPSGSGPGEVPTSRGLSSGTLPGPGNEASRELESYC
Experiment: cell-based or functional assay
Numbered stars: 1 amine (or outer) side, 2 acyl side, 3 side chain; on linkers, the order of the positions; unused ones are H or OH. Square brackets hold non-standard residues; d marks the D form. Side chains are listed from the residue outwards. Ends that are not written are not given here. * marks the point of attachment. C20 diacid = O=C(O)CCCCCCCCCCCCCCCCCCC(=O)*; γGlu = O=C(O)[C@H](CCC(=O)[*:2])N[*:1]; AEEA = NCCOCCOCC(=O)O; Aib = CC(C)(N)C(=O)O
Kindly supply the reported hGIPR cAMP EC50 ratio values for the records listed here.
Reply with the value as a number alone.

Query: What does the record list as hGIPR cAMP EC50 ratio for YXEGTFTSDYSILLDKKAQRAFIEYLIEGGPSSGAPPPS (Aib2, (2-[2-(2-Amino-ethoxy)-ethoxy]-acetyl)2-(γ-Glu)-CO-(CH2)18-CO2H on K17, C-terminal NH2) [Example 257] ?
Result: 0.316

Query: What does the record list as hGIPR cAMP EC50 ratio for XXEGTFTSDYSIXLDKKAQXEFIEYLIAGGPSSGAPPPS (D-Tyr1, Aib2, αMeL13, (2-[2-(2-Amino-ethoxy)-ethoxy]-acetyl)2-(γ-Glu)-CO-(CH2)18-CO2H on K17, Aib20, C-terminal NH2) [Example 290] ?
Result: 1.09

Query: What does the record list as hGIPR cAMP EC50 ratio for XXEGTFTSDYSIXLDXKAQXEFIEYLIAGGPSSGAPPPS (D-Tyr1, Aib2, αMeL13, Orn16, (2-[2-(2-Amino-ethoxy)-ethoxy]-acetyl)2-(γ-Glu)-CO-(CH2)18-CO2H on K17, Aib20, C-terminal NH2) [Example 349] ?
Result: 0.756

Query: What does the record list as hGIPR cAMP EC50 ratio for YXEGTFTSDYSIXLDKKAQXEFIEYLIAGGPSSGAPPPS (not fully specified; Aib2, αMeL13, (2-[2-(2-Amino-ethoxy)-ethoxy]-acetyl)-(γ-Glu)-CO-(CH2)18-CO2H on K17, Aib20, C-terminal NH2) [Example 339] ?
Result: 3.18

Query: What does the record list as hGIPR cAMP EC50 ratio for YXEGTXTSDYSIXLDXKAQXEFIXYLIEGGPSSGAPPPS (Aib2, αMeF(2F)6, Aib13, Orn16, (2-[2-(2-Amino-ethoxy)-ethoxy]-acetyl)2-(γ-Glu)-CO-(CH2)16-CO2H on K17, Aib20, D-Glu24, C-terminal NH2) [Example 247] ?
Result: 2.58

Query: What does the record list as hGIPR cAMP EC50 ratio for XXEGTFTSDYSIXLDXKAQXEFIXYLIAGGPSSGAPPPS (D-Tyr1, Aib2, αMeL13, Orn16, (2-[2-(2-Amino-ethoxy)-ethoxy]-acetyl)2-(γ-Glu)-CO-(CH2)18-CO2H on K17, Aib20, D-Glu24, C-terminal NH2) [Example 354] ?
Result: 0.441

Query: What does the record list as hGIPR cAMP EC50 ratio for YXEGTXTSDYSILLDKKAQXAFIEYLIEGGPSSG (Aib2, αMeF6, (2-[2-(2-Amino-ethoxy)-ethoxy]-acetyl)2-(γ-Glu)-CO-(CH2)16-CO2H on K17, Aib20, C-terminal NH2) [Example 301] ?
Result: 4.11

Query: What does the record list as hGIPR cAMP EC50 ratio for YXEGTXTSDYSILLDKKAQXEFIEYLIEGGPSSG (Aib2, αMeF(2F)6, (2-[2-(2-Amino-ethoxy)-ethoxy]-acetyl)2-(γ-Glu)-CO-(CH2)16-CO2H on K17, Aib20, C-terminal NH2) [Example 312] ?
Result: 4.76

Query: What does the record list as hGIPR cAMP EC50 ratio for YXEGTXTSDXSIXLDXKAQXEFIXXLIEGGPSSG (Aib2, αMeF(2F)6, 4Pal10, αMeF13 (so in the source), Orn16, (2-[2-(2-Amino-ethoxy)-ethoxy]-acetyl)2-(γ-Glu)-CO-(CH2)16-CO2H on K17, Aib20, D-Glu24, αMeY25, C-terminal NH2) [Example 264] ?
Result: 8.4

Query: What does the record list as hGIPR cAMP EC50 ratio for F[Aib]EGTFTSDYSILLDKK([AEEA-AEEA-γGlu-C20 diacid])AQ[Aib]AFIEYLIEGGPSSGAPPPS-NH2 [Example 326] ?
Result: 1.5

Query: What does the record list as hGIPR cAMP EC50 ratio for XXEGTFTSDYSIXLDKKAQXAFIEYLIEGGPSSGAPPPS (not fully specified; D-Tyr1, Aib2, αMeL13, (2-[2-(2-Amino-ethoxy)-ethoxy]-acetyl)2-(γ-Glu)-CO-(CH2)18-CO2H on K17, Aib20, C-terminal NH2) [Example 334] ?
Result: 0.844

Query: What does the record list as hGIPR cAMP EC50 ratio for YXEGTXTSDYSILLDKKAQXAFIEYLIEGGPSSGAPPPS (Aib2, αMeF(2F)6, (2-[2-(2-Amino-ethoxy)-ethoxy]-acetyl)2-(γ-Glu)-CO-(CH2)18-CO2H on K17, Aib20, C-terminal NH2) [Example 325] ?
Result: 2.65

Query: What does the record list as hGIPR cAMP EC50 ratio for YXEGTXTSDYSILLDEKAQXAFIEYLIEGGPSSG (Aib2, αMeF6, (2-[2-(2-Amino-ethoxy)-ethoxy]-acetyl)2-(γ-Glu)-CO-(CH2)16-CO2H on K17, Aib20, C-terminal NH2) [Example 307] ?
Result: 2.48

Query: What does the record list as hGIPR cAMP EC50 ratio for YXEGTFTSDYSILLDKKAQKAFIEYLIEGGPSSGAPPPS (Aib2, (2-[2-(2-Amino-ethoxy)-ethoxy]-acetyl)2-(γ-Glu)-CO-(CH2)18-CO2H on K17, C-terminal NH2) [Example 256] ?
Result: 0.233

Query: What does the record list as hGIPR cAMP EC50 ratio for YXEGTFTSDYSILLDKKAQHAFIEYLIEGGPSSGAPPPS (Aib2, (2-[2-(2-Amino-ethoxy)-ethoxy]-acetyl)2-(γ-Glu)-CO-(CH2)18-CO2H on K17, C-terminal NH2) [Example 255] ?
Result: 1.47

Query: What does the record list as hGIPR cAMP EC50 ratio for YXEGTFTSDYSIXLDKKAQXAFIEYLIEGGPSSG (Aib2, αMeL13, (2-[2-(2-Amino-ethoxy)-ethoxy]-acetyl)2-(γ-Glu)-CO-(CH2)16-CO2H on K17, Aib20, C-terminal NH2) [Example 300] ?
Result: 5.38

Query: What does the record list as hGIPR cAMP EC50 ratio for FXEGTFTSDYSIXLDKKAQXEFIEYLIAGGPSSGAPPPS (not fully specified; Aib2, αMeL13, (2-[2-(2-Amino-ethoxy)-ethoxy]-acetyl)2-(γ-Glu)-CO-(CH2)18-CO2H on K17, Aib20, C-terminal NH2) [Example 338] ?
Result: 1.29

Query: What does the record list as hGIPR cAMP EC50 ratio for XXEGTFTSDYSIXLDXKAQXEFIEXLIAGGPSSGAPPPS (D-Tyr1, Aib2, αMeL13, Orn16, (2-[2-(2-Amino-ethoxy)-ethoxy]-acetyl)2-(γ-Glu)-CO-(CH2)18-CO2H on K17, Aib20, αMeY25, C-terminal NH2) [Example 293] ?
Result: 1.36

Query: What does the record list as hGIPR cAMP EC50 ratio for XXEGTFTSDYSIXLDKKAQXEFIEXLIAGGPSSGAPPPS (D-Tyr1, Aib2, αMeL13, (2-[2-(2-Amino-ethoxy)-ethoxy]-acetyl)2-(γ-Glu)-CO-(CH2)18-CO2H on K17, Aib20, αMeY25, C-terminal NH2) [Example 292] ?
Result: 1.1
